settings: 318.2 K; 101.33 kPa; Liquid
# key: entry, value: mass density
Give your result in kg/m3 as a bare value.

- CCn1cc[n+](C)c1.O=S(=O)([O-])C(F)(F)F [1-ethyl-3-methylimidazolium trifluoromethanesulfonate]: 1365.3
- CCn1cc[n+](C)c1.COCCOCCOS(=O)(=O)[O-] [1-ethyl-3-methylimidazolium 2-(2-methoxyethoxy) ethylsulfate]: 1223.3

[in] // lookup mass density for CCOS(=O)(=O)[O-].CCn1cc[n+](C)c1 [1-ethyl-3-methylimidazolium ethyl sulfate]
[out] 1222.9

[in] // lookup mass density for CCn1cc[n+](C)c1.F[B-](F)(F)F [1-ethyl-3-methylimidazolium tetrafluoroborate]
[out] 1267.8

[in] // lookup mass density for CCn1cc[n+](C)c1.N#CN=C=[N-] [1-ethyl-3-methylimidazolium dicyanamide]
[out] 1096.2

----------
# key: entry, value: mass density
conditions: 308.2 K; 101.33 kPa; Liquid
Give your result in kg/m3 as a bare value.

• CCn1cc[n+](C)c1.F[B-](F)(F)F [1-ethyl-3-methylimidazolium tetrafluoroborate] = 1275
• CCn1cc[n+](C)c1.COCCOCCOS(=O)(=O)[O-] [1-ethyl-3-methylimidazolium 2-(2-methoxyethoxy) ethylsulfate] = 1230
• CCOS(=O)(=O)[O-].CCn1cc[n+](C)c1 [1-ethyl-3-methylimidazolium ethyl sulfate] = 1229.4
• CCn1cc[n+](C)c1.O=S(=O)([O-])C(F)(F)F [1-ethyl-3-methylimidazolium trifluoromethanesulfonate] = 1373.3

Proceed to the following item.
[in] // lookup mass density for CCn1cc[n+](C)c1.N#CN=C=[N-] [1-ethyl-3-methylimidazolium dicyanamide]
[out] 1102.6

----------
# key: entry, value: mass density
settings: 323.2 K; 101.33 kPa; Liquid
Give your result in kg/m3 as a bare value.

Illustrative cases are given below, each with its answer.
* CCn1cc[n+](C)c1.N#CN=C=[N-] [1-ethyl-3-methylimidazolium dicyanamide] | 1093
* CCn1cc[n+](C)c1.F[B-](F)(F)F [1-ethyl-3-methylimidazolium tetrafluoroborate] | 1264.2
* CCn1cc[n+](C)c1.COCCOCCOS(=O)(=O)[O-] [1-ethyl-3-methylimidazolium 2-(2-methoxyethoxy) ethylsulfate] | 1219.9
* CCOS(=O)(=O)[O-].CCn1cc[n+](C)c1 [1-ethyl-3-methylimidazolium ethyl sulfate] | 1219.7

[in] // lookup mass density for CCn1cc[n+](C)c1.O=S(=O)([O-])C(F)(F)F [1-ethyl-3-methylimidazolium trifluoromethanesulfonate]
[out] 1361.2

----------
assay: xn = mol fraction of the nth substance listed; conditions: 303.2 K; 101 kPa; Fluid (supercritical or subcritical phases); x1 = 0
# key: entry, value: binary diffusion coefficient
Give your result in m2/s as a bare value.

Illustrative cases are given below, each with its answer.
* CCn1cc[n+](C)c1.N#CN=C=[N-] [1-ethyl-3-methylimidazolium dicyanamide] + O | 1.25e-09
* CCOS(=O)(=O)[O-].CCn1cc[n+](C)c1 [1-ethyl-3-methylimidazolium ethyl sulfate] + O | 1.04e-09
* CCn1cc[n+](C)c1.O=S(=O)([O-])C(F)(F)F [1-ethyl-3-methylimidazolium trifluoromethanesulfonate] + O | 1.16e-09

[in] // lookup binary diffusion coefficient for CCn1cc[n+](C)c1.F[B-](F)(F)F [1-ethyl-3-methylimidazolium tetrafluoroborate] + O
[out] 1.5e-09

----------
# key: entry, value: mass density
conditions: 303.2 K; 101.33 kPa; Liquid
Give your result in kg/m3 as a bare value.

- CCn1cc[n+](C)c1.COCCOCCOS(=O)(=O)[O-] [1-ethyl-3-methylimidazolium 2-(2-methoxyethoxy) ethylsulfate]: 1233.4
- CCn1cc[n+](C)c1.N#CN=C=[N-] [1-ethyl-3-methylimidazolium dicyanamide]: 1105.8
- CCOS(=O)(=O)[O-].CCn1cc[n+](C)c1 [1-ethyl-3-methylimidazolium ethyl sulfate]: 1232.7
- CCn1cc[n+](C)c1.O=S(=O)([O-])C(F)(F)F [1-ethyl-3-methylimidazolium trifluoromethanesulfonate]: 1377.3

[in] // lookup mass density for CCn1cc[n+](C)c1.F[B-](F)(F)F [1-ethyl-3-methylimidazolium tetrafluoroborate]
[out] 1278.7

----------
# key: entry, value: mass density
details: 313.2 K; 101.33 kPa; Liquid
Give your result in kg/m3 as a bare value.

* CCn1cc[n+](C)c1.N#CN=C=[N-] [1-ethyl-3-methylimidazolium dicyanamide] | 1099.4

[in] // lookup mass density for CCn1cc[n+](C)c1.COCCOCCOS(=O)(=O)[O-] [1-ethyl-3-methylimidazolium 2-(2-methoxyethoxy) ethylsulfate]
[out] 1226.6

[in] // lookup mass density for CCn1cc[n+](C)c1.F[B-](F)(F)F [1-ethyl-3-methylimidazolium tetrafluoroborate]
[out] 1271.4

[in] // lookup mass density for CCn1cc[n+](C)c1.O=S(=O)([O-])C(F)(F)F [1-ethyl-3-methylimidazolium trifluoromethanesulfonate]
[out] 1369.3

[in] // lookup mass density for CCOS(=O)(=O)[O-].CCn1cc[n+](C)c1 [1-ethyl-3-methylimidazolium ethyl sulfate]
[out] 1226.2

----------
test: xn = mol fraction of the nth substance listed; settings: 308.2 K; 101 kPa; Fluid (supercritical or subcritical phases); x1 = 0
Readout Kind: binary diffusion coefficient

Illustrative cases are given below, each with its answer.
- CCOS(=O)(=O)[O-].CCn1cc[n+](C)c1 [1-ethyl-3-methylimidazolium ethyl sulfate] + O: 1.19e-09 m2/s
- CCn1cc[n+](C)c1.N#CN=C=[N-] [1-ethyl-3-methylimidazolium dicyanamide] + O: 1.41e-09 m2/s
- CCn1cc[n+](C)c1.F[B-](F)(F)F [1-ethyl-3-methylimidazolium tetrafluoroborate] + O: 1.57e-09 m2/s

[in] // lookup binary diffusion coefficient for CCn1cc[n+](C)c1.O=S(=O)([O-])C(F)(F)F [1-ethyl-3-methylimidazolium trifluoromethanesulfonate] + O
[out] 1.27e-09 m2/s

----------
assay: xn = mol fraction of the nth substance listed; conditions: 313.2 K; 101 kPa; Fluid (supercritical or subcritical phases); x1 = 0
Readout Kind: binary diffusion coefficient (m2/s)
Give your result in m2/s as a bare value.

Illustrative cases are given below, each with its answer.
* CCn1cc[n+](C)c1.O=S(=O)([O-])C(F)(F)F [1-ethyl-3-methylimidazolium trifluoromethanesulfonate] + O | 1.51e-09
* CCn1cc[n+](C)c1.F[B-](F)(F)F [1-ethyl-3-methylimidazolium tetrafluoroborate] + O | 1.69e-09
* CCOS(=O)(=O)[O-].CCn1cc[n+](C)c1 [1-ethyl-3-methylimidazolium ethyl sulfate] + O | 1.4e-09

Proceed to the following item.
[in] // lookup binary diffusion coefficient for CCn1cc[n+](C)c1.N#CN=C=[N-] [1-ethyl-3-methylimidazolium dicyanamide] + O
[out] 1.54e-09

----------
assay: xn = mol fraction of the nth substance listed; details: 323.2 K; 101 kPa; Fluid (supercritical or subcritical phases); x1 = 0
# key: entry, value: binary diffusion coefficient
In your response, put the unit directly after the numeric value.

Illustrative cases are given below, each with its answer.
- CCn1cc[n+](C)c1.O=S(=O)([O-])C(F)(F)F [1-ethyl-3-methylimidazolium trifluoromethanesulfonate] + O: 1.8e-09 m2/s
- CCOS(=O)(=O)[O-].CCn1cc[n+](C)c1 [1-ethyl-3-methylimidazolium ethyl sulfate] + O: 1.64e-09 m2/s
- CCn1cc[n+](C)c1.N#CN=C=[N-] [1-ethyl-3-methylimidazolium dicyanamide] + O: 1.85e-09 m2/s

Proceed to the following item.
[in] // lookup binary diffusion coefficient for CCn1cc[n+](C)c1.F[B-](F)(F)F [1-ethyl-3-methylimidazolium tetrafluoroborate] + O
[out] 2.01e-09 m2/s

----------
# key: entry, value: binary diffusion coefficient
assay: xn = mol fraction of the nth substance listed; conditions: 318.2 K; 101 kPa; Fluid (supercritical or subcritical phases); x1 = 0
Give your result in m2/s as a bare value.

Illustrative cases are given below, each with its answer.
- CCn1cc[n+](C)c1.F[B-](F)(F)F [1-ethyl-3-methylimidazolium tetrafluoroborate] + O: 1.88e-09
- CCn1cc[n+](C)c1.N#CN=C=[N-] [1-ethyl-3-methylimidazolium dicyanamide] + O: 1.71e-09
- CCn1cc[n+](C)c1.O=S(=O)([O-])C(F)(F)F [1-ethyl-3-methylimidazolium trifluoromethanesulfonate] + O: 1.66e-09

Proceed to the following item.
[in] // lookup binary diffusion coefficient for CCOS(=O)(=O)[O-].CCn1cc[n+](C)c1 [1-ethyl-3-methylimidazolium ethyl sulfate] + O
[out] 1.5e-09
